Tested on: NCI-H522 lung
runDescription: NCI-60 one-dose screen, 48 h (100 = growth as untreated, 0 = no growth, -100 = all killed)
testSettings: 10 µM unless noted
The panel holds about 83,000 compounds, 20% with a hit somewhere; the sample as a whole holds those more often. Calls of active or inactive are those of the source. The calls were made as follows: active = growth percent below 10; inactive = the rest.

# compound, growth
data = [
    ("COc1ccc2[nH]c(O)c(C(=Nc3ccc(N(C)C(=O)CN4CCN(C)CC4)cc3)c3ccccc3)c2c1", "67.2% (inactive)"),
    ("O=C(NCCCNc1cc(-c2cn(-c3ccccc3)nc2-c2cccc(O)c2)ccn1)c1ccc(F)cc1", "9.35% (active)"),
    ("COc1ccc(-c2cc(-c3cc(OC)ccc3OC)nc(SCC(=O)c3ccccc3)c2C#N)cc1", "79% (inactive)"),
    ("C=CCn1c(C)nc2cc(Nc3nc(Cl)nc4ccccc34)ccc21", "97.4% (inactive)"),
    ("CS(=O)c1cccc(-c2ccc3nc(N)n(-c4ccc(C(F)(F)F)cc4)c(=O)c3c2)c1 (configuration not stated)", "80.8% (inactive)"),
    ("Cc1c2c(c(C)c3c1oc1cc(O)ccc13)C(=O)N(CCN1CCCCC1)C2=O", "94.1% (inactive)"),
    ("CCN(CC)c1nc(SCC(=O)Nc2nc3ccc(C)cc3s2)nc(-c2ccccc2)c1C#N", "82.5% (inactive)"),
    ("CC1(C)OC2C(CO[Si](C)(C)C(C)(C)C)OC(n3c(I)c(C#C[Si](C)(C)C)c(=O)[nH]c3=O)C2O1 (configuration not stated)", "90% (inactive)"),
    ("NC(N)=NN=C(c1ccccc1)c1ccccc1", "28.2% (inactive)"),
    ("COC(=O)[C@]12CC[C@@H](C)[C@H](C)[C@@H]1C1=CC[C@@H]3[C@@]4(C)C(C=O)=C[C@@](C)(CO)[C@@H]4[C@H](O)C[C@@]3(C)[C@]1(C)CC2", "-37.5% (active)"),
    ("Cc1ccc(/C=C2\\C(=O)N(C)c3ccc(S(=O)(=O)Nc4ccc(C(C)(C)C)cc4)cc32)s1", "43.4% (inactive)"),
    ("COCN1CCC2N(COC)CCC3N(COC)CCC1N23 (configuration not stated)", "107% (inactive)"),
    ("NC(=O)c1ccc[n+]([C@@H]2O[C@H](COP(=O)([O-])OP(=O)(O)OC[C@H]3O[C@@H](n4cnc5c(N)ncnc54)[C@H](O)[C@@H]3O)[C@@H](O)[C@H]2O)c1", "105% (inactive)"),
    ("O=c1cc(C2NNC(=S)N2)c2ccc3ccccc3c2o1 (configuration not stated)", "87.1% (inactive)"),
    ("O=C(COc1ccc(/C=C2\\Oc3ccccc3C2=O)cc1)Nc1nc2ccccc2s1", "-79.9% (active)"),
    ("CC/C=C\\C[C@H](O)C/C=C1/C(=O)C=C[C@@H]1C/C=C\\CCCC(=O)OC", "-69.6% (active)"),
    ("COC(=O)[C@]12CC[C@@H](C)[C@H](C)[C@@H]1C1=CC[C@@H]3[C@@]4(C)C(C=O)=C[C@@](C)(COC(C)=O)[C@@H]4C(=O)C[C@@]3(C)[C@]1(C)CC2", "12.9% (inactive)"),
    ("COc1cc(C2CC(=O)Nc3c2c(C)nn3-c2nc3ccccc3[nH]2)cc2c1OCC(=O)N2 (configuration not stated)", "71.4% (inactive)"),
    ("C[n+]1cccc(CC(=O)NO)c1", "84.6% (inactive)"),
    ("COc1ccc(-c2cc(-c3ccc(Nc4nc(Nc5ccc(Cl)cc5)nc(Nc5ccc(Cl)cc5)n4)cc3)nc(N)c2C#N)cc1", "83.4% (inactive)"),
    ("CC1(C)CC(=O)C2=C(C1)N(c1ccc(OC(F)(F)F)cc1)C(N)=C(C#N)C2c1ccc(Cl)cc1 (configuration not stated)", "63.1% (inactive)"),
    ("CC1(C)CC(=O)CC2(C1)N=C(N)Nc1nc3ccccc3n12 (configuration not stated)", "69.6% (inactive)"),
    ("O=C(NCCCNc1cc(-c2cn(-c3ccccc3)nc2-c2cccc(O)c2)ccn1)c1ccccc1", "7.01% (active)"),
    ("N#Cc1c(-c2cccc(Cl)c2)cc(-c2cccc(Cl)c2)[nH]c1=O", "64.4% (inactive)"),
    ("COc1ccc(N=C(c2ccccc2)C2C(=O)c3ccccc3C2=O)cc1", "67% (inactive)"),
    ("COc1ccc(NC(=O)CSc2nc(C)c(C(C)=O)n2-c2ccc([N+](=O)[O-])cc2)cc1", "88.9% (inactive)"),
    ("Cc1cc(Cl)ccc1Nc1nc(C(F)(F)F)ccc1C(=O)N/N=C/c1ccc(N(C)C)cc1", "7.24% (active)"),
    ("c1c[nH]c(CNC2CCCCC2)c1", "109% (inactive)"),
    ("O=C1/C(=C/c2ccccc2)CCc2nc3ccccc3c(/C=C/c3ccc(Cl)cc3)c21", "71.1% (inactive)"),
    ("O=C1c2cccc(NCCN=Cc3cc([N+](=O)[O-])ccc3O)c2C(=O)c2c(NCCN=Cc3cc([N+](=O)[O-])ccc3O)cccc21", "45% (inactive)"),
    ("CCCc1cc2c(=O)c(C(=O)OC)c[nH]c2cc1N(CC)CC", "73.7% (inactive)"),
    ("C=CCSc1nc2ccccc2cc1/C=N/O", "76.4% (inactive)"),
    ("O=c1oc2ccccc2c(Cl)c1Cl", "22.9% (inactive)"),
    ("COc1cccc(-c2nn(-c3ccccc3)cc2-c2ccnc(NCCCNC(=O)c3ccccc3)c2)c1", "38.3% (inactive)"),
    ("COc1ccccc1CNCCCN1C(=O)c2ccc3c4c(ccc(c24)C1=O)C(=O)N(CCCNCCCCN)C3=O", "-84% (active)"),
    ("COCCN(C(=O)c1ccc(F)cc1F)c1c(N)n(Cc2ccccc2)c(=O)[nH]c1=O", "98.3% (inactive)"),
    ("CC1(c2ccccc2)NC(=O)N(NC(=O)CSc2nc(-c3cccs3)nc3ccccc23)C1=O (configuration not stated)", "82.3% (inactive)"),
]
